assay: Neurotoxicity in po dosed Sprague-Dawley albino rat at 30 mg/kg, po after 0.25 to 4 hrs by rotarod test; format: toxicity, organism-based; design: dose 30 mg/kg, route oral; conditions: in vivo
attributeMeasured: TD50 (mg/kg)
Numeric only. Scale: mg/kg

These solved cases illustrate the format of a correct answer.
1. CC1(c2ccccc2)CC(=O)N(CN2CCN(c3ccc(F)cc3)CC2)C1=O (configuration not stated)
65.6
2. O=C1CC(c2ccccc2Br)C(=O)N1CN1CCN(c2ccc(F)cc2)CC1 (configuration not stated)
62.4

Input: Recorded TD50 for CC1(c2ccccc2)CC(=O)N(CN2CCN(c3ccc(Cl)c(Cl)c3)CC2)C1=O (configuration not stated) , please?
Output: 168

###

system: Vibrio harveyi; assay: Antimutagenic activity in Vibrio harveyi BB7M assessed as inhibition of 4-nitroquinoline-N-oxide-induced mutation; format: functional
attributeMeasured: inhibition (INH) (%)
Numeric only. Scale: %

1. CCC1(C)CC(=O)NC1=O (configuration not stated) [ETHOSUXIMIDE]
43
2. CC1(c2ccccc2)CC(=O)N(CN2CCN(c3cccc(Cl)c3)CC2)C1=O (configuration not stated)
61
3. CC1(c2ccccc2)CC(=O)N(CN2CCN(c3ccc(F)cc3)CC2)C1=O (configuration not stated)
62
4. CC1(c2ccccc2)CC(=O)N(CN2CCN(c3ccc(Cl)cc3)CC2)C1=O (configuration not stated)
43
5. CC1(c2ccccc2)CC(=O)N(CN2CCN(c3ccccc3)CC2)C1=O (configuration not stated)
38

Input: Recorded inhibition (INH) for CC1(c2ccccc2)CC(=O)N(CN2CCN(c3ccccc3F)CC2)C1=O (configuration not stated) , please?
Output: 57

Input: Recorded inhibition (INH) for CC1(c2ccccc2)CC(=O)N(CN2CCN(c3ccccc3Cl)CC2)C1=O (configuration not stated) , please?
Output: 47

###

system: Vibrio harveyi; assay: Induction of mutagenecity in Vibrio harveyi BB7XM; assay type: organism-based; details: in vivo
attributeMeasured: Activity

1. CC1(c2ccccc2)CC(=O)N(CN2CCN(c3ccc(Cl)c(Cl)c3)CC2)C1=O (configuration not stated)
Toxic
2. CCC1(C)CC(=O)NC1=O (configuration not stated) [ETHOSUXIMIDE]
Non-toxic
3. CC1(c2ccccc2)CC(=O)N(CN2CCN(c3ccccc3F)CC2)C1=O (configuration not stated)
Non-toxic
4. COc1ccccc1N1CCN(CN2C(=O)CC(C)(c3ccccc3)C2=O)CC1 (configuration not stated)
Toxic
5. CC1(c2ccccc2)CC(=O)N(CN2CCN(c3ccc(F)cc3)CC2)C1=O (configuration not stated)
Non-toxic
6. CC1(c2ccccc2)CC(=O)N(CN2CCN(c3ccccc3Cl)CC2)C1=O (configuration not stated)
Non-toxic

Now look at this one.
Input: Recorded Activity for CC1(c2ccccc2)CC(=O)N(CN2CCN(c3ccc(Cl)cc3)CC2)C1=O (configuration not stated) , please?
Output: Non-toxic

###

test: Neurotoxicity in ip dosed CF-1 albino mouse after 0.5 hrs by rotarod test; format: toxicity, organism-based; details: CF-1, mouse, in vivo
attributeMeasured: TD50 at 0.5 h (mg/kg)
Numeric only. Scale: mg/kg

These solved cases illustrate the format of a correct answer.
1. CC1(c2ccccc2)CC(=O)N(CN2CCN(c3cccc(Cl)c3)CC2)C1=O (stereo unspecified)
300
2. CC1(C)CC(=O)N(CN2CCN(c3ccc(Cl)cc3)CC2)C1=O
300
3. CC1(C)CC(=O)N(CN2CCN(c3ccccc3Cl)CC2)C1=O
100
4. CC1(C)CC(=O)N(CN2CCN(c3cccc(Cl)c3)CC2)C1=O
300
5. CC1(C)CC(=O)N(CN2CCN(c3ccccc3)CC2)C1=O
300

Now look at this one.
Input: Recorded TD50 at 0.5 h for Cc1cccc(N2CCN(CN3C(=O)CC(C)(C)C3=O)CC2)c1 , please?
Output: 300
